# assayed.system: T1, Macaca fascicularis CD276 (Macaca fascicularis)
# T1 construct: whole, on cells; also called cynomolgus monkey CD276; cynoCD276
# test.protocol: FACS on CHO-S-cynoCD276 cells
metric: FACS MFI
No unit in the answer, please; the number alone is enough.

Example results:
{"binder": "20-A2-D10-G8 (antibody, V domains shown, mouse monoclonal antibody (hybridoma)) VH: QVQLQQSGPELVRPGVSVKISCKGSGYTFTDYTMHWVKESHAQSLEWIGVISTYYGNTNYNQNFKGKATLTVDKSSSTAYMELAGLTSEDSAIYYCARASYGSGYGPYYWYFDVWGAGTTVTVSS VL: DIQMTQSPASLFASVGETVTITCRASEKIYSYLAWYFQKQGKSPQFLVYNANALAEGVPSRFSGSGSGTQFSLKIKSLQPEDFGTYYCQHHYGSPVTFGAGSKLELK", "FACS MFI": 9020}
{"binder": "15-C8-B5-G7 (antibody, V domains shown, mouse monoclonal antibody (hybridoma)) VH: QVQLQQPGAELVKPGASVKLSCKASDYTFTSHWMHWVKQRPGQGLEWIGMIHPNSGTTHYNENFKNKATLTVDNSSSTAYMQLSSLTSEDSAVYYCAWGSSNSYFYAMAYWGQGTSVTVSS VL: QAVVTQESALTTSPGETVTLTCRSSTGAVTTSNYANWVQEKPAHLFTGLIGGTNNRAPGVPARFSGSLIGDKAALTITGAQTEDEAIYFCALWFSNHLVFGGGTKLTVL", "FACS MFI": 43000}
{"binder": "2-A7-B10-A3 (antibody, V domains shown, mouse monoclonal antibody (hybridoma)) VH: QVQLQQSGAELVRPGVSVKISCKGSGYTFTDYAMHWVKQSHAKSLEWIGVINTNYVNTSYNQKFKGKATMTVDKSSSTAFMELARLTSEDSAIYYCARGGKYGNYVFFFAYWGQGTLVTVSA VL: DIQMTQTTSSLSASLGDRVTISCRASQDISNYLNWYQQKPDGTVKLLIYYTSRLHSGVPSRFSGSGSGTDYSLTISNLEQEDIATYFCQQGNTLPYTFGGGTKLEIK", "FACS MFI": 56000}
{"binder": "3-C2-C3-E7 (antibody, V domains shown, mouse monoclonal antibody (hybridoma)) VH: EVQLQQSGPELVKPGASVKISCKTSGYTFTENTMHWVKQSHGKRLEWIGGINPNTGGTTYNQKFKGKATLTVDKSSSTAYMELRSLTSEDSAVYYCARRGTNWEHWYFDVWGAGTTVTVSS VL: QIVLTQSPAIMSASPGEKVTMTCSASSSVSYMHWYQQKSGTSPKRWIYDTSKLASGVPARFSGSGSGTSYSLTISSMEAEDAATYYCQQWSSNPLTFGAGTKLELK", "FACS MFI": 2110}

// below: FACS MFI requested for another binder
For this binder ( 6-H11-G5-D8 (antibody, V domains shown, mouse monoclonal antibody (hybridoma)) VH: EVQLQESGPELVKPGTSVKLSCKASGYTFTSYDINWVRQRPEQGLEWIGWIFPGNGDTYYNEKFKGKATLTSDKSSSTAYMQLSRLTSEDSAVYFCARDLRLGTFDYWGQGTTLTVSS VL: QIVLTQSPEIMSASPGEKVTMTCSASSSVSYIHWYQQKSGTSPKRWIYDTSKLASGVPARFSGSGSGTSYSLTIRSMEAEDAATYYCQQGSSNPRTFGGGTKLELK ), measured FACS MFI is 30400
